meta.source: patent US20260201008A1

measurement_target: human secretin receptor (hSCTR) (human, UniProt P47872 23-440)
Sequence (P47872 23-440): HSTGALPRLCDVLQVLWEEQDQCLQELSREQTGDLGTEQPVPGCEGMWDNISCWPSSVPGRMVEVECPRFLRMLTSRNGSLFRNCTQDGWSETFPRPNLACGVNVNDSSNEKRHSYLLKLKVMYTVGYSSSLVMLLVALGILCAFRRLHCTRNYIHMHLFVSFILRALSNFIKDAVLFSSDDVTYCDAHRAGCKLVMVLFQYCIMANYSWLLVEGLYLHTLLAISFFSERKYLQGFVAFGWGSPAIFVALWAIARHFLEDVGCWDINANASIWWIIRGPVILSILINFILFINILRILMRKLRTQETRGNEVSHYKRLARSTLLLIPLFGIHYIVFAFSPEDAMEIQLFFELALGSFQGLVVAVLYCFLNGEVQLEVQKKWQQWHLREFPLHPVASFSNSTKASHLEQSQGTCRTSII
method_notes: cell-based or functional assay
Numbered stars: 1 amine (or outer) side, 2 acyl side, 3 side chain; on linkers, the order of the positions; unused ones are H or OH. Square brackets hold non-standard residues; d marks the D form. Side chains are listed from the residue outwards. Ends that are not written are not given here. * marks the point of attachment. C20 diacid = O=C(O)CCCCCCCCCCCCCCCCCCC(=O)*; γGlu = O=C(O)[C@H](CCC(=O)[*:2])N[*:1]; AEEA = NCCOCCOCC(=O)O; Aib = CC(C)(N)C(=O)O
measure_name: pEC50 hSCTR

Solved cases below.
binder	measure_name	observed_measurement
H[Aib]EGTFTSDVSYLKEEA[Aib]LQRFLEYLV-NH2 (not fully specified (residue 14); also: K14 lipidated with C20DA[γE][OEG][OEG]- or C18DA[γE][OEG][OEG]-) [SEQ ID NO: 144]	pEC50 hSCTR	6.6 -log M
H[Aib]EGTFTSDVSTLK([AEEA-AEEA-γGlu-C20 diacid])E[Aib]AA[Aib]QRFLEHLV-NH2 [SEQ ID NO: 32]	pEC50 hSCTR	6.2 -log M
H[Aib]EGTFTSDVSYLHEEA[Aib]LQRFLEKLV-NH2 (not fully specified (residue 25)) [SEQ ID NO: 164]	pEC50 hSCTR	6.6 -log M

Query: Please look up its pEC50 hSCTR: H[Aib]EGTFTSDVSELK([AEEA-AEEA-γGlu-C20 diacid])ETAATQRFLEHLV-NH2 [SEQ ID NO: 54]
Response: 6.9 -log M

Query: Please look up its pEC50 hSCTR: H[Aib]QGTFTSDVSYLKEEA[Aib]LQRFLEHLV-NH2 (not fully specified (residue 14)) [SEQ ID NO: 156]
Response: 4.4 -log M
